# EXPERIMENT: CEETOX_H295R_DOC: CeeTox H295R High-throughput Steroidogenesis Assay for DOC (AID 2283439)
# CONDITIONS: actives raise or lower the signal
Activity calls are given as the source filed them. How the source made its calls: active means hit-call score of the fitted dose curve at least 0.9, where 1 is the maximum; inactive means score below 0.9.
Thanks in advance; please answer with one of these: active, inactive

Input: // return assay outcome for `COc1ccc(C(=O)c2ccccc2)c(O)c1`
Output: inactive

Input: // return assay outcome for `COc1ccc(-c2coc3cc(O)cc(O)c3c2=O)cc1`
Output: active

Let's switch to this compound now.
Input: // return assay outcome for `CC(C)(c1ccccc1)c1ccc(Nc2ccc(C(C)(C)c3ccccc3)cc2)cc1`
Output: active
